target.or.test.system: proTNF-α convertase enzyme (TACE) (Homo sapiens)
Construct: a partially purified, isolated enzyme assay, the enzyme being obtained from the membranes of THP-1; endogenous in cells
Sequence (P78536 215-824): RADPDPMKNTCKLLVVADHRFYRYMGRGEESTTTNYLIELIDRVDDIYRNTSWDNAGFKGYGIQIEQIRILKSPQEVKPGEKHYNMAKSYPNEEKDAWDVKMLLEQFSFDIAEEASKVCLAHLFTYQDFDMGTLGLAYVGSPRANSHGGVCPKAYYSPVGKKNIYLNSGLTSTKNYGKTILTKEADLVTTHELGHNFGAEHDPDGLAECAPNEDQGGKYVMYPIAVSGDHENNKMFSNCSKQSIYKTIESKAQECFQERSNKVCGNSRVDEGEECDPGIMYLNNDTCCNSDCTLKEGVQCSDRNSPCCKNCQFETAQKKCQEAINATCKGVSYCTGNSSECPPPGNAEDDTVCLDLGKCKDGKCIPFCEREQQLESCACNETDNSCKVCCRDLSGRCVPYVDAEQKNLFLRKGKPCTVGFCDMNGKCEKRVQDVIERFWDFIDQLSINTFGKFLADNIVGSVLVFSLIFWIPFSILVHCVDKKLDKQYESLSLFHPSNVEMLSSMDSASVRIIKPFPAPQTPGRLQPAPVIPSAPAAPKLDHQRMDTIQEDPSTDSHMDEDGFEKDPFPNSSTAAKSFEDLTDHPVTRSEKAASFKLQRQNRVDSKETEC
method.summary: Isolated enzyme assay, proTNF-α convertase (TACE), partially purified enzyme from membranes of THP-1, fluorescent peptide substrate
settings: 26° C. for 4 hours, read-out: concentration causing 50% inhibition of TACE
pIC50: −log10 of the molar value.
observable: pIC50

In [3]: df
Out[3]:
                                   molecule  numeric_result
0  Cc1cc(COC2CCN(S(=O)(=O)CCC3NC(=O)NC3=O)CC2)c2ccccc2n1 (stereo not shown) [Example 3]            6.20
